System: HOP-92 NSCLC
experimental details: NCI-60 one-dose screen, 48 h (100 = growth as untreated, 0 = no growth, -100 = all killed)
condition notes: 10 µM unless noted
Compounds without any hit were thinned out: in the full panel of roughly 83,000, 20% have a hit.
quantity: growth (%)

Cc1cc(C#Cc2ccccc2)ccc1-n1c(/C=C/c2ccc(F)cc2)nc2ccccc2c1=O :: 39.2
CC1=C(C(=O)Nc2ccc(F)cc2)C(c2ccc(Cl)cc2)C2=C(CC(C)(C)CC2=O)N1 (stereo not given) :: 62
CC(=O)c1c(C)nc(-c2cc(C)cc(Cl)c2)nc1-c1cccc(Oc2ccccc2)c1 :: 38
COc1cc(C2Nc3ccccc3S2)cc(CN2CCOCC2)c1O (stereo not given) :: 103
Cc1ccc(NC(=O)Cn2nncc2CN2C(=O)CSC2=O)cc1C :: 112

###

Test system: LOX IMVI melanoma
experimental details: NCI-60 one-dose screen, 48 h (100 = growth as untreated, 0 = no growth, -100 = all killed)
condition notes: 10 µM unless noted
The panel holds about 83,000 compounds, 20% with a hit somewhere; the sample as a whole holds those more often.
quantity: growth (%)

CCCCn1c(-c2ccc(F)cc2)nc2cc(OC)c(OC)cc2c1=O :: 98.3
COc1cc(-c2n/c(=C\c3c(O)[nH]c4cc(Cl)ccc34)cc3c2=Nc2ccccc2-3)cc(OC)c1OC :: 34.3
C=CCn1c(C)nc2cc(Nc3nc(N4CCCC4)nc4nc[nH]c34)ccc21 :: 37.8
CC(=O)c1c(C)nc(-c2cc(C)cc(Cl)c2)nc1-c1cccc(Oc2ccccc2)c1 :: 78.4
Cc1cc(O)c(C2=NN(c3ccc(S(N)(=O)=O)cc3)C(c3ccc(Cl)cc3)C2)c(C)c1Cl (stereo not given) :: 52.4
COc1cc(C2=NOC(c3cc(OC)c(OC)c(OC)c3)C2)ccc1OCCCCOc1cc2c(cc1OC)C(=O)N1CCC[C@H]1C=N2 (stereo not given in full) :: -68.6
Cc1ccc2cc3c(NC(=O)c4cccnc4)nn(C)c3nc2c1 :: 92.4
O=[N+]([O-])c1cc(F)c2cccnc2c1O :: 84.7
CCN(CC)CCCC(C)Nc1cnc(C(=O)Nc2ccc(Cl)c3cccnc23)cn1 (stereo not given) :: -83.9
Brc1ccccc1Cn1c(-c2cncs2)nc2ccccc21 :: 75.8

###

Tested on: UACC-62 melanoma
experimental details: NCI-60 one-dose screen, 48 h (100 = growth as untreated, 0 = no growth, -100 = all killed)
condition notes: 10 µM unless noted
Description: Growth inhibition of the UACC-62 human tumor cell line is measured as a screen for anti-cancer activity. Cells are grown in 96 well plates and exposed to the test compound for 48 hours. Compounds are tested at a single concentration, which is 10^-5 M for most compounds. The reported endpoint is percent growth (GI% or GIPRCNT), where numbers from 0 - 100% represent growth inhibition, and numbers from -100% - 0 represent cell death. For example, a value of 40 represents 60% growth inhibition. […]
The panel holds about 83,000 compounds, 20% with a hit somewhere; the sample as a whole holds those more often. Activity calls are given as the source filed them. Rule for the calls: active = growth percent below 10; inactive = the rest.
quantity: growth

Fc1ccc2c(CN3CCO[C@H](COc4cccc(Cl)c4)C3)c[nH]c2c1 :: 60.2% (inactive)
COc1cc2nccc(Oc3ccc(NC(=O)C4(C(=O)Nc5ccc(F)cc5)CC4)cc3)c2cc1OC(=O)c1ccc(N)cc1 :: 40.1% (inactive)
C=C(C)[C@@H]1CC[C@]2(C)[C@H](CC=C3[C@@H]4C[C@](C)(C(=O)N5CCN(C)CC5)CC[C@]4(C)CC[C@]32C)[C@@]1(C)CCC#N :: 53.5% (inactive)
COc1ccc2nc(NC(=O)/C(=C/c3cc(OC)c(OC)c(OC)c3)c3ccc(OC)c(OC)c3)sc2c1 :: 90.5% (inactive)
N#Cc1ccc(NC(=O)Nc2nc3ccc(OC(F)(F)F)cc3s2)cc1 :: 2.82% (active)
CCCCCCCCCCCCCCCC1=NCC[N+]1(CCO)CCO :: 76.2% (inactive)
CCc1ccc(-c2ccc(NC3CCCCCC3)nn2)cc1S(N)(=O)=O :: 97.8% (inactive)
COc1ccc(C2=CC(c3ccc(OC)cc3Br)N3C=CSC3=N2)cc1 (configuration not stated) :: 71.2% (inactive)
CCN(CC)CCCNc1cccc2c(C)cc(OC)nc12 :: 85.3% (inactive)
Oc1[nH]c2ccccc2c1/C=c1/ccc2c(c1)N=C(c1ccc(C(F)(F)F)cc1)N=2 :: 47.2% (inactive)
COc1ccc(/C(=C\c2cc(OC)c(OC)c(OC)c2)C(=O)Nc2nc3ccc(Cl)cc3s2)cc1 :: 77.6% (inactive)
COc1cc(C2CC(c3cccc(Nc4ccnc5cc(Cl)ccc45)c3)=NN2c2ccc(Cl)cc2)cc(OC)c1OC (configuration not stated) :: 9.05% (active)
COc1ccc(CCN2COc3c([C@@H](C)CCC=C(C)C)ccc(C)c3C2)cc1OC :: 65.5% (inactive)
COc1cc(C2=NOC(c3cc(OC)c(OC)c(OC)c3)C2)ccc1OCCCCOc1cc2c(cc1OC)C(=O)N1CCC[C@H]1C=N2 (some centres not stated) :: -76.6% (active)
CCCCOc1ncnc2nc[nH]c12 :: 104% (inactive)
COc1cc(CN2CCO[C@H](COc3cccc(F)c3)C2)ccc1Cl :: 44.7% (inactive)
CC1(C)C(N(O)C(=O)Nc2ccc(Cl)cc2)N(c2ccc(Cl)cc2)C(=O)N1CC(=O)N/N=C/C=C/c1ccc([N+](=O)[O-])o1 (configuration not stated) :: -40.5% (active)
CNC(=O)c1cc(Oc2ccc(NC(=O)c3[nH]c(SC)nc3-c3ccc(F)cc3)cc2)ccn1 :: 5.44% (active)
CC[C@H](Nc1nc(N)nc(N)c1Cl)c1nc2cccc(NCc3ccc(C(=O)NO)cc3)c2c(=O)n1-c1ccccc1 :: -56.8% (active)
CCOC(=O)c1ccccc1SC(C[N+](=O)[O-])c1ccccc1 (configuration not stated) :: 97.8% (inactive)
C=CCn1c(C)nc2cc(Nc3nc(N4CCCC4)nc4nc[nH]c34)ccc21 :: 31.7% (inactive)
CC(C)OC(=O)c1ccc([N+](=O)[O-])cc1 :: 100% (inactive)
O=C(/C=C/c1cn(-c2ccccc2)nc1-c1cccc(Nc2ccnc3cc(Cl)ccc23)c1)c1ccc2c(c1)OCO2 :: 104% (inactive)
CC(=O)c1ccc(Nc2nc(Cl)nc(Oc3c(Cl)cccc3Cl)n2)cc1 :: 80.6% (inactive)
CC(C)CC(NC(=O)C(CCCN=C(N)N)NC(=O)OCc1ccccc1)C(=O)NC(CNC(=O)/C=C/c1ccccc1)C(C)C (configuration not stated) :: 102% (inactive)
Cc1cc(C)c([O-])c(CN(C)CCN(C)Cc2cc(C)cc(C)c2[O-])c1.O=C([O-])c1cccc(C(=O)[O-])n1.[Ti+4] :: 25.8% (inactive)
Cc1nc2n[nH]c(N)c2nc1C :: 106% (inactive)

###

Tested on: K-562 leukemia
experimental details: NCI-60 one-dose screen, 48 h (100 = growth as untreated, 0 = no growth, -100 = all killed)
condition notes: 10 µM unless noted
The panel holds about 83,000 compounds, 20% with a hit somewhere; the sample as a whole holds those more often.
Please map values of growth to classes as shown: low = under 20%, middle = from 20% up to 80%, high = 80% and over

COc1ccc(C2=NN(C=O)C(c3ccc(OS(=O)(=O)c4ccc(C)cc4)c(OC)c3)C2)cc1 (stereo not drawn) :: low
O=C(CN1CCN(c2ccccc2)CC1)N1CCN(c2nnc(-c3ccc(Cl)cc3)c(-c3ccc(Cl)cc3)n2)CC1 :: middle
Nc1ccc(N(O)/C=C2\C=CC=CC2=O)cc1N :: high
COc1cc(/C=C/c2ccc3c(Br)cc(Br)c(O)c3n2)ccc1O :: low
Cc1nc2ccc(Nc3nc(Cl)nc(N4CCOCC4)n3)cc2n1Cc1ccccc1 :: middle
COc1cc(OC)cc(-c2n/c(=C\c3c(O)[nH]c4ccc(Cl)cc34)cc3c2=Nc2ccccc2-3)c1 :: middle
CC(=O)O[C@H]1[C@H](CC#CC#CC[C@@H]2C[C@]3(C)[C@H]4CC=C5[C@H]6[C@@H](C)[C@H](C)CC[C@]6(C(=O)NCCCCCCCCN)CC[C@@]5(C)[C@]4(C)CC[C@H]3C(C)(C)[C@H]2OC(C)=O)C[C@]2(C)[C@H]3CC=C4[C@H]5[C@@H](C)[C@H](C)CC[C@]5(C(=O)NCCCCCCCCN)CC[C@@]4(C)[C@]3(C)CC[C@H]2C1(C)C :: high
CCCCn1c(C)nc2ccc(Nc3nc(Cl)nc4nc[nH]c34)cc21 :: middle
O=NN(CC(=O)NNc1ccccc1)CC(=O)NNc1ccccc1 :: low
CCSc1ccc([C@@H]2[C@@H](N)C(=O)N2c2cc(OC)c(OC)c(OC)c2)cc1 :: low
O=c1c2sc3ncc(Cl)cc3c2nnn1-c1cccc(Cl)c1 :: middle
O=[N+]([O-])c1cccc(N=C(Nc2cccc([N+](=O)[O-])c2)c2ccccc2)c1 :: middle
CCOC(=O)C1=C(C)NC(SCc2nnc(-c3ccc(Cl)cc3)o2)=NC1c1ccc(Cl)cc1 (stereo not drawn) :: middle
CCNS(=O)(=O)c1ccc(C)cc1 :: high
Oc1ccc(CCCCCCc2ccc(O)cc2)cc1 :: high
CC(C)CC(NC(=O)OCC1c2ccccc2-c2ccccc21)C(=O)O (stereo not drawn) :: high
COc1ccc(NC(=O)c2ccc(C(F)(F)F)nc2Nc2ccc(Cl)cc2C)cc1Cl :: low
CN=C1C=C/C(=N/N=c2/ccn(O)cc2C)C=C1C :: high
N=C(N)c1ccc(-c2ccc(-c3cc(Cl)cc(Cl)c3)o2)nc1 :: low
CCOC(=O)c1sc2nc(-c3cc4ccccc4o3)cc(-c3ccc(Cl)cc3)c2c1N :: high
N=c1n(Cc2ccccc2)c(N)cc(=O)n1Cc1ccccc1 :: middle
CCCCCCCCCC1=NC(C)(C)CN1C(C)(C)CO :: low
Nc1nc(N)c2c(n1)NC(c1sc(Cl)nc1Cl)CC(c1ccc3c(c1)OCO3)=N2 (stereo not drawn) :: low
Cc1c(O)c(=O)n(-c2ccccc2)n1C :: high
CN1CCN(Cc2ccc(NC(=O)c3ccc(C#N)c(C#Cc4cnc(N)c5ncccc45)c3)cc2C(F)(F)F)CC1 :: low

Origin of the recorded values: PubChem BioAssay (NCI)
